Measured Bmax, listed per entry.
measured_target: cynomolgus PD-1 antigen protein of the affinity-maturation screen (cynomolgus)
assay_details: capture ELISA, second-round affinity-maturation screen (scFv format likely); unit not given

{"columns": ["binder", "Bmax"],
 "data": [
  ["2B1 (antibody, V domains shown) VH: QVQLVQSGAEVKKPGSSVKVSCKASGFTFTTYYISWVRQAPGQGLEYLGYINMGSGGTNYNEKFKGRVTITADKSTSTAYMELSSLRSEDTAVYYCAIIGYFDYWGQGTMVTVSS VL: DVVMTQSPLSLPVTLGQPASISCRSSQSLLDSDGNTYLYWFQQRPGQSPRRLIYLVSTLGSGVPDRFSGSGSGTDFTLKISRVEAEDVGVYYCMQLTHWPYTFGQGTKLEIK", 1.21],
  ["1H6 (antibody, human IgG4, V domains shown) VH: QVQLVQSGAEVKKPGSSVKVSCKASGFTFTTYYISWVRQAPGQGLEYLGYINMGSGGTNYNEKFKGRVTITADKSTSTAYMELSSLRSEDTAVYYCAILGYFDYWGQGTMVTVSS VL: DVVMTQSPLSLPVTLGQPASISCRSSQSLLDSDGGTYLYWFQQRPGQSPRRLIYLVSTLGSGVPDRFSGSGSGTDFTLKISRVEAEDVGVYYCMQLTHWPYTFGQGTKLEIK", 0.317]
]}
